Tested on: Salmonella typhimurium
procedure.text: Antimutagenic activity against Salmonella typhimurium TA100 assessed as inhibition of NaN3-induced mutation at 500 ug/plate preincubated for 30 mins followed by top agar addition and measured after 48 hrs in presence of liver S9 fraction by Ames test relative to control
Format: organism-based
study.conditions: salmonella enterica subsp. enterica serovar typhimurium, s9, 48 h
measurement.label: inhibition (INH) (%)
Please give a number only; it is taken to be in %.

Query: Specify measured inhibition (INH) for CCC(O)CNC(=O)COc1c(C)cccc1C (centres undefined) .
Result: 47

Query: Specify measured inhibition (INH) for `Cc1cccc(C)c1OCC(=O)N[C@H](C)CO` .
Result: 40

Query: Specify measured inhibition (INH) for Cc1cccc(C)c1OCC(=O)NCC(O)c1ccccc1 (centres undefined) .
Result: 41

Query: Specify measured inhibition (INH) for `CC[C@@H](CO)NC(=O)COc1c(C)cccc1C` .
Result: 43
